Cited source for all entries: the supplement of paper PMC6206229

system: Staphylococcus aureus ATCC 29213 (MSSA); assay: minimum inhibitory concentration; extreme values may be limits of the assay
Would you mind telling me the reported minimum inhibitory concentration of each entry?

Exercise: Requested field: minimum inhibitory concentration. Item: CCC(NC(=O)c1ccccc1NC(=O)c1ccc(C)cc1)C(=O)OC (stereo unspecified)
Key: > 50 µM

Exercise: // next record O=C(CN1CCOCC1)Nc1ccc2ncnc(Nc3ccc(OCc4cccc(F)c4)c(Cl)c3)c2c1
Key: > 50 µM

Exercise: // next record Cc1cccc(Cn2ccc(NC(=O)c3ccc4c(c3)OCO4)n2)c1
Key: > 50 µM

Exercise: // next record Cc1[nH]c2ccccc2c1C(c1cccs1)N1CCN(C)CC1 (stereo unspecified)
Key: 50 µM

Exercise: // next record CCCc1ccc(S(=O)(=O)Nc2ccc(CN3CCN(CC4CC4)CC3)cc2)cc1
Key: > 50 µM

Exercise: // next record CCOc1ccc2cc(-c3nn(C(C)(C)C)c(N)c3C(N)=O)cnc2c1
Key: > 50 µM

Exercise: // next record O=C(NC1CCN(c2ccnc3ccccc23)C1)c1cccc(C(F)(F)F)c1 (stereo unspecified)
Key: > 50 µM

Exercise: // next record CC1=NN(c2nc3ccccc3s2)C(=O)C1Cc1cccc2ccccc12 (stereo unspecified)
Key: > 50 µM

Exercise: // next record Cc1noc(C)c1COc1cccc(C(=O)N=c2[nH]cccc2C)c1
Key: > 50 µM

Exercise: // next record COc1cccc(-n2nnnc2S(=O)(=O)Cc2ccccc2)c1
Key: 50 µM

Exercise: // next record CCOC(=O)c1cc(-c2csc(Nc3c(C)cc(C)cc3C)n2)on1
Key: > 50 µM
